Molecular target: Wee1 kinase domain (Homo sapiens, UniProt P30291)
Construct: Wee1 kinase domain was purchased from Carna (catalog #05-177); purchased Carna 05-177
Sequence (P30291 299-569 limits assumed): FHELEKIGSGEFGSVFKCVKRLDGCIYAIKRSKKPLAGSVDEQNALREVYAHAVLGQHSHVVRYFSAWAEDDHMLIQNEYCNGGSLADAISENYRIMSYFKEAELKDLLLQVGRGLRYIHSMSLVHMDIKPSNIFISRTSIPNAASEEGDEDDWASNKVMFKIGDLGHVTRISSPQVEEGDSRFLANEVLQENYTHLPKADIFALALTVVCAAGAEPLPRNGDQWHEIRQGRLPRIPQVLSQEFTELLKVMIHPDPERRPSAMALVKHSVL
Assay: Wee1 Kinase Biochemical Assay (ADP-Glo)
Conditions: Wee1 kinase domain, 15 uM ATP, ADP-Glo
I'd appreciate it if you could supply IC50 values for the items below.

Assay Wee1 kinase domain (Homo sapiens, UniProt P30291), sample C[C@H]1COC(=O)N1c1cccc(N2c3nc(Nc4cnn(C5CCNCC5)c4)ncc3[C@]3(C)COC(C)(C)C[C@H]23)n1 (single isomer, unassigned) [Example 254] , IC50 read: 0.01 to 0.1 µM

Assay Wee1 kinase domain (Homo sapiens, UniProt P30291), sample CN1Cc2cc(Nc3ncc4c(n3)N(c3cccc(N=S(C)(C)=O)n3)[C@H]3CC(C)(C)OC[C@@]43C)ccc2C2(CC2)C1 (single isomer, unassigned) [Example 108] , IC50 read: 0.01 to 0.1 µM

Assay Wee1 kinase domain (Homo sapiens, UniProt P30291), sample C[C@H]1COC(=O)N1c1cccc(N2c3nc(Nc4ccc(N5C[C@@H]6C[C@H]5CN6C)cc4)ncc3[C@@]3(C)COC(C)(C)C[C@@H]23)n1 (single isomer, unassigned) [Example 245] , IC50 read: < 0.01 µM

Assay Wee1 kinase domain (Homo sapiens, UniProt P30291), sample C[C@H]1COC(=O)N1c1cccc(N2c3nc(Nc4ccc(N5CCCN(C)CC5)cc4)ncc3[C@]3(C)COC(C)(C)C[C@H]23)n1 (single isomer, unassigned) [Example 298] , IC50 read: 0.01 to 0.1 µM

Assay Wee1 kinase domain (Homo sapiens, UniProt P30291), sample CN1CC2(C1)CN(c1ccc(Nc3ncc4c(n3)N(c3cccc(N=S(C)(C)=O)n3)[C@@H]3CC(C)(C)OC[C@]43C)cc1)C2 [Example 219] , IC50 read: < 0.01 µM

Assay Wee1 kinase domain (Homo sapiens, UniProt P30291), sample CNCc1cccc(N2c3nc(NC45CC(C4)C5)ncc3[C@@]3(C)COC(C)(C)C[C@@H]23)n1 [Example 89] , IC50 read: ≥ 1 µM
